Property: log10 of TGI; scope: individual molecules
# Test system: SF-539 CNS
# measurement description: NCI tumour cell line growth inhibition, 48 h
measured property: log10 of TGI (log10 of the value in µM)

[
  {
    "molecule": "Cc1cc(NCCCN(C)C)c2ccc3c(ccc4c(NCCCN(C)C)cc(C)nc43)c2n1",
    "assayed system": "SF-539 CNS",
    "log10 of TGI": -0.31
  },
  {
    "molecule": "CCCCCCCC/C=C\\CCCCCCC/C=C1\\C[C@](/C=C/C(=O)OC)(CO)OC1=O",
    "assayed system": "SF-539 CNS",
    "log10 of TGI": 0.58
  },
  {
    "molecule": "CC(C)(C)C(=O)OCC1C(=O)OCC1C(=O)N1Cc2cc3ccccc3nc2C1 (configuration not stated)",
    "assayed system": "SF-539 CNS",
    "log10 of TGI": 1.08
  },
  {
    "molecule": "O=C(N/N=C/C=C/c1ccc([N+](=O)[O-])o1)c1cc2ccccc2cc1O",
    "assayed system": "SF-539 CNS",
    "log10 of TGI": 1.01
  },
  {
    "molecule": "O=C1CCCCC/C1=C\\c1ccc([N+](=O)[O-])cc1",
    "assayed system": "SF-539 CNS",
    "log10 of TGI": 1.80
  },
  {
    "molecule": "N#CC1(C#N)NC(c2cccs2)C(C#N)(C#N)NC1c1cccs1 (configuration not stated)",
    "assayed system": "SF-539 CNS",
    "log10 of TGI": 1.68
  },
  {
    "molecule": "C=C(C(N)=O)c1ccc([N+](=O)[O-])o1",
    "assayed system": "SF-539 CNS",
    "log10 of TGI": 1.43
  },
  {
    "molecule": "Cc1ccccc1C1OC(=O)c2ccc3ccccc3c21 (configuration not stated)",
    "assayed system": "SF-539 CNS",
    "log10 of TGI": 1.13
  },
  {
    "molecule": "COC(=O)C1(Cc2ccc3c(c2)CCC3)Cc2ccccc2C1O (configuration not stated)",
    "assayed system": "SF-539 CNS",
    "log10 of TGI": 1.52
  },
  {
    "molecule": "COc1ccc(/C=C/c2cc(OC)c(OC)c(OC)c2)cc1",
    "assayed system": "SF-539 CNS",
    "log10 of TGI": 1.13
  },
  {
    "molecule": "CC(NC(=O)C(NC(=O)CNC(=O)OC(C)(C)C)C(C)C)C(=O)Oc1c(Cl)c(Cl)c(Cl)c(Cl)c1Cl (configuration not stated)",
    "assayed system": "SF-539 CNS",
    "log10 of TGI": 1.52
  }
]
